# credit: patent US5840684A

# Tested on: Staphylococcus aureus S13E
# Type: cell-based
# Experimental: The MIC's were determined using a standard broth micro-dilution assay.
# MIC per entry
// return numeric value only (unit: µg/mL, not printed)

Sample answers from the record:
>>> value("CC(C)CC(C(=O)NC1C(=O)NC(CC(N)=O)C(=O)NC2C(=O)NC3C(=O)NC(C(=O)NC(C(=O)O)c4cc(O)cc(O)c4-c4cc3ccc4O)C(OC3CC(C)(N)C(O)C(C)O3)c3ccc(c(Cl)c3)Oc3cc2cc(c3OC2OC(CO)C(O)C(O)C2OC2CC(C)(NCc3ccc(N(C)c4ccccc4)cc3)C(O)C(C)O2)Oc2ccc(cc2Cl)C1O)N(C)Cc1ccc(N(C)c2ccccc2)cc1 (centres unmarked)")
4
>>> value("CNC(CC(C)C)C(=O)NC1C(=O)NC(CC(N)=O)C(=O)NC2C(=O)NC3C(=O)NC(C(=O)NC(C(=O)O)c4cc(O)cc(O)c4-c4cc3ccc4O)C(OC3CC(C)(N)C(O)C(C)O3)c3ccc(c(Cl)c3)Oc3cc2cc(c3OC2OC(CO)C(O)C(O)C2OC2CC(C)(NCc3ccc(-c4ccc(F)cc4)cc3)C(O)C(C)O2)Oc2ccc(cc2Cl)C1O (centres unmarked)")
0.5
>>> value("CC(C)CC(C(=O)NC1C(=O)NC(CC(N)=O)C(=O)NC2C(=O)NC3C(=O)NC(C(=O)NC(C(=O)O)c4cc(O)cc(O)c4-c4cc3ccc4O)C(OC3CC(C)(N)C(O)C(C)O3)c3ccc(c(Cl)c3)Oc3cc2cc(c3OC2OC(CO)C(O)C(O)C2OC2CC(C)(NCc3ccc4ccccc4n3)C(O)C(C)O2)Oc2ccc(cc2Cl)C1O)N(C)Cc1ccc2ccccc2n1 (centres unmarked)")
1
>>> value("CNC(CC(C)C)C(=O)NC1C(=O)NC(CC(N)=O)C(=O)NC2C(=O)NC3C(=O)NC(C(=O)NC(C(=O)O)c4cc(O)cc(O)c4-c4cc3ccc4O)C(OC3CC(C)(NCc4ccc(-c5ccc(Cl)cc5)cc4)C(O)C(C)O3)c3ccc(c(Cl)c3)Oc3cc2cc(c3OC2OC(CO)C(O)C(O)C2OC2CC(C)(NCc3ccc(-c4ccc(Cl)cc4)cc3)C(O)C(C)O2)Oc2ccc(cc2Cl)C1O.O=C(O)C(F)(F)F (centres unmarked)")
32
>>> value("CNC(CC(C)C)C(=O)NC1C(=O)NC(CC(N)=O)C(=O)NC2C(=O)NC3C(=O)NC(C(=O)NC(C(=O)O)c4cc(O)cc(O)c4-c4cc3ccc4O)C(OC3CC(C)(NCc4ccc(OCCOC(C)(C)C)cc4)C(O)C(C)O3)c3ccc(c(Cl)c3)Oc3cc2cc(c3OC2OC(CO)C(O)C(O)C2OC2CC(C)(NCc3ccc(OCCOC(C)(C)C)cc3)C(O)C(C)O2)Oc2ccc(cc2Cl)C1O (centres unmarked)")
2
>>> value("CCN(CC)CCOc1ccc(CNC2(C)CC(OC3C(Oc4c5cc6cc4Oc4ccc(cc4Cl)C(OC4CC(C)(N)C(O)C(C)O4)C4NC(=O)C(NC(=O)C6NC(=O)C(CC(N)=O)NC(=O)C(NC(=O)C(CC(C)C)NC)C(O)c6ccc(c(Cl)c6)O5)c5ccc(O)c(c5)-c5c(O)cc(O)cc5C(C(=O)O)NC4=O)OC(CO)C(O)C3O)OC(C)C2O)cc1 (centres unmarked)")
0.125

Recorded result, CC(C)CC(C(=O)NC1C(=O)NC(CC(N)=O)C(=O)NC2C(=O)NC3C(=O)NC(C(=O)NC(C(=O)O)c4cc(O)cc(O)c4-c4cc3ccc4O)C(OC3CC(C)(N)C(O)C(C)O3)c3ccc(c(Cl)c3)Oc3cc2cc(c3OC2OC(CO)C(O)C(O)C2OC2CC(C)(NCc3ccc(Oc4ccccc4)cc3)C(O)C(C)O2)Oc2ccc(cc2Cl)C1O)N(C)Cc1ccc(Oc2ccccc2)cc1 (centres unmarked) , MIC: 0.5

Recorded result, CNC(CC(C)C)C(=O)NC1C(=O)NC(CC(N)=O)C(=O)NC2C(=O)NC3C(=O)NC(C(=O)NC(C(=O)O)c4cc(O)cc(O)c4-c4cc3ccc4O)C(OC3CC(C)(N)C(O)C(C)O3)c3ccc(c(Cl)c3)Oc3cc2cc(c3OC2OC(CO)C(O)C(O)C2OC2CC(C)(NCc3ccc(-c4ccc(Cl)cc4)cc3)C(O)C(C)O2)Oc2ccc(cc2Cl)C1O (centres unmarked) [Compound 229, 4-[4-chlorophenyl]benzyl-A82846B] , MIC: 1

* * *

# Test system: Streptococcus pyogenes C203
# Assay comment: broth micro-dilution MIC
# Type: cell-based
Readout name: MIC

>>> value("CNC(CC(C)C)C(=O)NC1C(=O)NC(CC(N)=O)C(=O)NC2C(=O)NC3C(=O)NC(C(=O)NC(C(=O)O)c4cc(O)cc(O)c4-c4cc3ccc4O)C(OC3CC(C)(N)C(O)C(C)O3)c3ccc(c(Cl)c3)Oc3cc2cc(c3OC2OC(CO)C(O)C(O)C2OC2CC(C)(NCc3ccc(Oc4ccccc4)cc3)C(O)C(C)O2)Oc2ccc(cc2Cl)C1O (centres unmarked) [Compound 4, p-phenoxybenzyl·A82846B]")
"≤ 0.06 µg/mL"

Recorded result, CNC(CC(C)C)C(=O)NC1C(=O)NC(CC(N)=O)C(=O)NC2C(=O)NC3C(=O)NC(C(=O)NC(C(=O)O)c4cc(O)cc(O)c4-c4cc3ccc4O)C(OC3CC(C)(N)C(O)C(C)O3)c3ccc(c(Cl)c3)Oc3cc2cc(c3OC2OC(CO)C(O)C(O)C2OC2CC(C)(NCCCCCCCCBr)C(O)C(C)O2)Oc2ccc(cc2Cl)C1O (centres unmarked) , MIC: ≤ 0.06 µg/mL

* * *

# Test system: Haemophilus influenzae RD
# Assay comment: broth micro-dilution MIC
# Assay type: cell-based
# Condition summary: Haemophilus influenzae RD
Readout name: MIC (µg/mL)
// return numeric value only (unit: µg/mL, not printed)

Recorded result, CNC(CC(C)C)C(=O)NC1C(=O)NC(CC(N)=O)C(=O)NC2C(=O)NC3C(=O)NC(C(=O)NC(C(=O)O)c4cc(O)cc(O)c4-c4cc3ccc4O)C(OC3CC(C)(N)C(O)C(C)O3)c3ccc(c(Cl)c3)Oc3cc2cc(c3OC2OC(CO)C(O)C(O)C2OC2CC(C)(NCc3ccc(-c4ccc(C#N)cc4)cc3)C(O)C(C)O2)Oc2ccc(cc2Cl)C1O (centres unmarked) [Compound 231] , MIC: 32

* * *

# MIC per entry
# Tested on: Staphylococcus aureus SA1199B
# Format: cell-based
// return numeric value only (unit: µg/mL, not printed)

Sample answers from the record:
>>> value("CNC(CC(C)C)C(=O)NC1C(=O)NC(CC(N)=O)C(=O)NC2C(=O)NC3C(=O)NC(C(=O)NC(C(=O)O)c4cc(O)cc(O)c4-c4cc3ccc4O)C(OC3CC(C)(N)C(O)C(C)O3)c3ccc(c(Cl)c3)Oc3cc2cc(c3OC2OC(CO)C(O)C(O)C2OC2CC(C)(NCc3ccc4ccccc4n3)C(O)C(C)O2)Oc2ccc(cc2Cl)C1O (stereo not drawn)")
0.125
>>> value("CNC(CC(C)C)C(=O)NC1C(=O)NC(CC(N)=O)C(=O)NC2C(=O)NC3C(=O)NC(C(=O)NC(C(=O)O)c4cc(O)cc(O)c4-c4cc3ccc4O)C(OC3CC(C)(N)C(O)C(C)O3)c3ccc(c(Cl)c3)Oc3cc2cc(c3OC2OC(CO)C(O)C(O)C2OC2CC(C)(NCCCCCCCCCC#Cc3ccccc3)C(O)C(C)O2)Oc2ccc(cc2Cl)C1O (stereo not drawn)")
4

Recorded result, CNC(CC(C)C)C(=O)NC1C(=O)NC(CC(N)=O)C(=O)NC2C(=O)NC3C(=O)NC(C(=O)NC(C(=O)O)c4cc(O)cc(O)c4-c4cc3ccc4O)C(OC3CC(C)(N)C(O)C(C)O3)c3ccc(c(Cl)c3)Oc3cc2cc(c3OC2OC(CO)C(O)C(O)C2OC2CC(C)(NCc3cccc(Oc4cccc(C(F)(F)F)c4)c3)C(O)C(C)O2)Oc2ccc(cc2Cl)C1O (stereo not drawn) [Compound 111] , MIC: 1

* * *

# System: Pediococcus pentosaceus
# Assay comment: agar dilution MIC, lactic acid bacteria
# Format: cell-based
# Condition summary: Pediococcus pentosaceus (mean of 2), brain-heart infusion agar
# MIC per entry
// return numeric value only (unit: µg/mL, not printed)

>>> value("CNC(CC(C)C)C(=O)NC1C(=O)NC(CC(N)=O)C(=O)NC2C(=O)NC3C(=O)NC(C(=O)NC(C(=O)O)c4cc(O)cc(O)c4-c4cc3ccc4O)C(OC3CC(C)(N)C(O)C(C)O3)c3ccc(c(Cl)c3)Oc3cc2cc(c3OC2OC(CO)C(O)C(O)C2OC2CC(C)(NCc3ccc(SC)cc3)C(O)C(C)O2)Oc2ccc(cc2Cl)C1O (stereo not drawn)")
91
>>> value("CNC(CC(C)C)C(=O)NC1C(=O)NC(CC(N)=O)C(=O)NC2C(=O)NC3C(=O)NC(C(=O)NC(C(=O)O)c4cc(O)cc(O)c4-c4cc3ccc4O)C(OC3CC(C)(N)C(O)C(C)O3)c3ccc(c(Cl)c3)Oc3cc2cc(c3OC2OC(CO)C(O)C(O)C2OC2CC(C)(NCc3ccc4ccccc4c3)C(O)C(C)O2)Oc2ccc(cc2Cl)C1O (stereo not drawn)")
23
>>> value("CNC(CC(C)C)C(=O)NC1C(=O)NC(CC(N)=O)C(=O)NC2C(=O)NC3C(=O)NC(C(=O)NC(C(=O)O)c4cc(O)cc(O)c4-c4cc3ccc4O)C(OC3CC(C)(N)C(O)C(C)O3)c3ccc(c(Cl)c3)Oc3cc2cc(c3OC2OC(CO)C(O)C(O)C2OC2CC(C)(NCc3ccc(C=Cc4ccccc4)cc3)C(O)C(C)O2)Oc2ccc(cc2Cl)C1O (stereo not drawn)")
8.0
>>> value("CNC(CC(C)C)C(=O)NC1C(=O)NC(CC(N)=O)C(=O)NC2C(=O)NC3C(=O)NC(C(=O)NC(C(=O)O)c4cc(O)cc(O)c4-c4cc3ccc4O)C(OC3CC(C)(N)C(O)C(C)O3)c3ccc(c(Cl)c3)Oc3cc2cc(c3OC2OC(CO)C(O)C(O)C2OC2CC(C)(NCc3ccc(OC(F)(F)F)cc3)C(O)C(C)O2)Oc2ccc(cc2Cl)C1O (stereo not drawn)")
8.0

Recorded result, CNC(CC(C)C)C(=O)NC1C(=O)NC(CC(N)=O)C(=O)NC2C(=O)NC3C(=O)NC(C(=O)NC(C(=O)O)c4cc(O)cc(O)c4-c4cc3ccc4O)C(OC3CC(C)(N)C(O)C(C)O3)c3ccc(c(Cl)c3)Oc3cc2cc(c3OC2OC(CO)C(O)C(O)C2OC2CC(C)(NCc3cc(OCc4ccccc4)ccc3OC)C(O)C(C)O2)Oc2ccc(cc2Cl)C1O (stereo not drawn) , MIC: 91
